RUN DESCRIPTION: Plasma pharmacokinetics after a single oral dose of rucaparib 600 mg in patients with advanced solid tumors, by hepatic function group
RUN CONDITIONS: human, plasma, po, 600 mg, AUC0–inf, Median (min–max), NCI-ODWG moderate hepatic impairment; single oral rucaparib 600 mg
MEASURE NAME: AUC(0-inf) (ng·h/mL)
Field: numeric (ng·h/mL). Do not append units.

Ask | If you can, please state the reported AUC(0-inf) value of CNCc1ccc(-c2[nH]c3cc(F)cc4c3c2CCNC4=O)cc1 .
Reply | 20600

---

RUN DESCRIPTION: Plasma pharmacokinetics after a single oral dose of rucaparib 600 mg in patients with advanced solid tumors, by hepatic function group
RUN CONDITIONS: human, plasma, po, 600 mg, AUC0–inf, GM, NCI-ODWG moderate hepatic impairment; single oral rucaparib 600 mg
MEASURE NAME: AUC(0-inf) (ng·h/mL)
Give just the numeric value; ng·h/mL need not be written.

Ask | So what does the record say about AUC(0-inf) for CNCc1ccc(-c2[nH]c3cc(F)cc4c3c2CCNC4=O)cc1 [rucaparib] ?
Reply | 19900
